The compounds listed here are annotated with their relative viability.
Test system: SW684
Test: relative viability vs DMSO control (72 h) (fraction); higher = more viable cells
Details: 3.333 µM
Write no unit; give the number alone.

Sample records with relative viability:
                               query_smiles  result
0  COc1cc(OC)cc(N(CCNC(C)C)c2ccc3ncc(-c4cnn(C)c4)nc3c2)c1   0.739
1  C=CC(=O)Nc1cc(Nc2nccc(-c3cn(C)c4ccccc34)n2)c(OC)cc1N(C)CCN(C)C   0.984
2  N#CCC1(n2cc(-c3ncnc4[nH]ccc34)cn2)CN(C2CCN(C(=O)c3ccnc(C(F)(F)F)c3F)CC2)C1    1.06
3  NC(=O)c1cnc2[nH]ccc2c1N[C@@H]1[C@@H]2CC3C[C@H]1C[C@@](O)(C3)C2    1.09
4  C#Cc1cccc(Nc2ncnc3cc(OCCOC)c(OCCOC)cc23)c1    1.18

q: Need relative viability, item `CN(C)C[C@@H]1CCn2cc(c3ccccc32)C2=C(C(=O)NC2=O)c2cn(c3ccccc23)CCO1`
a: 1.15

q: Which relative viability reading was recorded for the compound `COc1cc2ncnc(Nc3cccc(Cl)c3F)c2cc1OC(=O)N1CCN(C)C[C@H]1C` ?
a: 1.1

q: // relative viability lookup, key: `COc1cc(Nc2c(C#N)cnc3cc(OCCCN4CCN(C)CC4)c(OC)cc23)c(Cl)cc1Cl`
a: 0.6

q: State the recorded relative viability for this entry: `CC[C@@H]1C(=O)N(C)c2cnc(Nc3ccc(C(=O)N[C@H]4CC[C@H](N5CCN(CC6CC6)CC5)CC4)cc3OC)nc2N1C(C)C`
a: 0.602

###

Tested on: SW982
Assay: relative viability vs DMSO control (72 h) (fraction); higher = more viable cells
Conditions: 0.00017 µM
property name: relative viability
No unit in the answer, please; the number alone is enough.

Examples with their reported relative viability follow.
compound	property name	result
COc1cc2nccc(Oc3ccc(NC(=O)C4(C(=O)Nc5ccc(F)cc5)CC4)cc3)c2cc1OC [Cabozantinib]	relative viability	1.04
C=CC(=O)Nc1cccc(Nc2nc(Nc3ccc(N4CCN(C(C)=O)CC4)cc3OC)ncc2C(F)(F)F)c1	relative viability	1.01
C1=N/C2=N/c3ccc(OCCN4CCCC4)c(c3)COC/C=C/COCc3cccc(c3)C(=C1)N2	relative viability	1.04
COc1cc2nccc(Oc3ccc(NC(=O)NC4CC4)c(Cl)c3)c2cc1C(N)=O	relative viability	1
CCN(c1cc(-c2ccc(CN3CCOCC3)cc2)cc(C(=O)NCc2c(C)cc(C)[nH]c2=O)c1C)C1CCOCC1	relative viability	0.968
C[C@@H]1COC(Nc2ccc3ncnc(Nc4ccc(OCc5nccs5)c(Cl)c4)c3c2)=N1	relative viability	0.982
CNC(=O)c1cc(Oc2ccc(NC(=O)Nc3ccc(Cl)c(C(F)(F)F)c3)cc2)ccn1	relative viability	1.07
Cc1ccc(NC(=O)c2ccc(CN3CCN(C)CC3)cc2)cc1Nc1nccc(-c2cccnc2)n1	relative viability	0.985

q: # query: relative viability of entry `NC(=O)c1cnc2[nH]ccc2c1N[C@@H]1[C@@H]2CC3C[C@H]1C[C@@](O)(C3)C2`
a: 1.03

q: Would you mind telling me what relative viability value was observed for `FC(F)(F)c1ccc(CNc2ccc(Cc3c[nH]c4ncc(Cl)cc34)cn2)cn1` ?
a: 1.02

q: Entry `NC(=O)c1cccc2cn(-c3ccc([C@@H]4CCCNC4)cc3)nc12` : reported relative viability = ?
a: 1.05

q: Given the entry `CO[C@H]1C[C@@H]2CC[C@@H](C)[C@@](O)(O2)C(=O)C(=O)N2CCCC[C@H]2C(=O)O[C@H]([C@H](C)C[C@@H]2CC[C@@H](O)[C@H](OC)C2)CC(=O)[C@H](C)/C=C(\C)[C@@H](O)[C@@H](OC)C(=O)[C@H](C)C[C@H](C)/C=C/C=C/C=C/1C` , report its measured relative viability.
a: 0.919

q: What relative viability value was documented for this compound, `Cc1cn(-c2cc(NC(=O)c3ccc(C)c(Nc4nccc(-c5cccnc5)n4)c3)cc(C(F)(F)F)c2)cn1` ?
a: 0.977

q: Data request, read-out relative viability, for `COc1cc2ncnc(Nc3cccc(Cl)c3F)c2cc1OC(=O)N1CCN(C)C[C@H]1C`
a: 1.06
